- target system: T1, Full length recombinant HBcAg (rHBcAg) encompassing residues 1-183 (hepatitis B virus, UniProt P03146 1-183)
- T1 construct: range 1-183; also called hepatitis B virus core antigen
- T1 sequence (P03146 whole entry, the tested form may be a part): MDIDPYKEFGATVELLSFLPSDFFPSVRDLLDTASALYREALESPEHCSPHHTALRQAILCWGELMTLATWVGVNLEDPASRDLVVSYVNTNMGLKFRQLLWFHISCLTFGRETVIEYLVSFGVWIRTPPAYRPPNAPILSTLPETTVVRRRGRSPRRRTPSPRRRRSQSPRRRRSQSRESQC
- measurement protocol: EIA, support-bound peptide, HBcAg 5 ug/ml
Please note: 1 applies when OD is 0.4 OD or greater, and -1 applies otherwise.

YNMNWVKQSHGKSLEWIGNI (also called Peptide # 27) [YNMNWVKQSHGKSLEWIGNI (SEQ. ID. No. 30)]
-1
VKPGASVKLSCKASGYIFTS (also called Peptide # 2; Pept. #2) [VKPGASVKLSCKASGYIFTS (SEQ. ID. No. 5)]
1
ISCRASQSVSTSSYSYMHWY [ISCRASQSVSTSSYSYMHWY (SEQ. ID. No. 17)]
1
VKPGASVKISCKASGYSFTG (also called Peptide # 25) [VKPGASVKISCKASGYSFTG (SEQ. ID. No. 28)]
-1
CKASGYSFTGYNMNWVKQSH (also called Peptide # 26) [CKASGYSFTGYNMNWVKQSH (SEQ. ID. No. 29)]
-1

input: Given the entry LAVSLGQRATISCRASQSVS [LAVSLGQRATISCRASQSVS (SEQ. ID. No. 16)] , answer whether its OD meets or surpasses 0.4 OD.
output: 1
